What growth was measured for each of the following?
- Test system: NCI-H226 lung
- protocol_details: NCI-60 one-dose screen, 48 h (100 = growth as untreated, 0 = no growth, -100 = all killed)
- condition_set: 10 µM
About 83,000 compounds went through this panel and 20% of them were active in at least one assay; those are over-represented in the sample as a whole. Activity calls are given as the source filed them. How the source made its calls: active means growth percent below 10; inactive means the rest.

{"molecule": "CCO/C=C1\\SC(=S)N(c2cccc(O)c2)C1=O", "growth": "96.1% (inactive)"}

Count: 5. Required value per item: growth.
1. CCC(C)(C)c1cc(O)c(C(C)(C)CC)cc1O
2. CCCCCCCCCCSC(=N)N
3. CN(C)C(=S)SC(=S)N(C)C
4. OCC(O)C(O)C(O)C(/C=N/Nc1ccccc1)=N/Nc1ccccc1 (stereo unspecified)
5. O=c1ccn(C2CC(O)C(COC(c3ccccc3)(c3ccccc3)c3ccccc3)O2)c(=O)[nH]1 (stereo unspecified)

Result:
["41.8% (inactive)", "99.7% (inactive)", "104% (inactive)", "91.4% (inactive)", "91.7% (inactive)"]
